Value source: the supplement of paper PMC11417369

# Tested on: PfAP2-EXP AP2 domain (GST-tagged)
# assay.details: gcPBM binding intensity (ln(normalized median fluorescence intensity)); higher = stronger DNA binding
In all, about 25,000 sequences were measured (“ln(normalized median fluorescence intensity)”: median about 8.6, highest 2% from about 10 on). The full list was thinned out, with the highest values kept by preference.
Label rule, in plain words: gcPBM binding intensity (ln) of 9 and up is t, under 9 is f.

In: Record ATTTTATTTTTTCACACACACATATATATATATATA [CACACA_site3334] ; criterion: gcPBM binding intensity (ln) no lower than 9. Met?
Out: t

In: Record AATGGATGGTCCAAATGTACATATATATATATATAT [XGTACX_site4800] ; criterion: gcPBM binding intensity (ln) no lower than 9. Met?
Out: t

In: Record TTTCCTAGCACATGCACACAAAAAAAAAAAAAAAAA [CACACA_site1404] ; criterion: gcPBM binding intensity (ln) no lower than 9. Met?
Out: f

====

# System: PfAP2-EXP AP2 domain (GST-tagged)
# assay.details: gcPBM binding intensity (ln(normalized median fluorescence intensity)); higher = stronger DNA binding
Whole data set: some 25,000 sequences, median “ln(normalized median fluorescence intensity)” near 8.6, cut for the highest 2% near 10. The sample as a whole holds a higher share of the highest values than the screen did.
metric: gcPBM binding intensity (ln)
Hey, just send me the number, nothing else.

In: For the sequence shown here, GAAACGTTTTTGAGTAGTACACACACAATAAGGATG [XGTACX_site6809] , give the reported gcPBM binding intensity (ln).
Out: 9.02

In: For the sequence shown here, GATCTATATATCATTACACACTTGAATTACTTAAAA [CACACA_site21] , give the reported gcPBM binding intensity (ln).
Out: 8.49

In: For the sequence shown here, TTTCTAGTTACAAGAGTGCATAATATATAAAAATAA [GTGCAC_site9874] , give the reported gcPBM binding intensity (ln).
Out: 8.85

In: For the sequence shown here, ATATTTATAACTTGGTGTACTTTGAAAAAAAAAAAA [XGTACX_site5194] , give the reported gcPBM binding intensity (ln).
Out: 8.38

In: For the sequence shown here, TATACCTATAGACACACACACATAAATAGATATATA [CACACA_site6748] , give the reported gcPBM binding intensity (ln).
Out: 8.83

In: For the sequence shown here, TATCACAAAATATACTGTACATACAGGCAGTAATAT [XGTACX_site2487] , give the reported gcPBM binding intensity (ln).
Out: 8.71

In: For the sequence shown here, TAGCTCGTTCGGAGCACACACATATAAATAAATATA [CACACA_site7002] , give the reported gcPBM binding intensity (ln).
Out: 8.38

In: For the sequence shown here, AAAATATTTATTTTTTGTACACATAAAAACGCACTT [XGTACX_site4132] , give the reported gcPBM binding intensity (ln).
Out: 8.62

In: For the sequence shown here, AAAAAAATAAATAAATGTACATATATAAAACATTGT [XGTACX_site2136] , give the reported gcPBM binding intensity (ln).
Out: 8.87

In: For the sequence shown here, `TATATATATATAATAGTGCATAAATAAATATATAAA` , give the reported gcPBM binding intensity (ln).
Out: 9.65

In: For the sequence shown here, CACAGTGATATAAAAACACACATGAATTCTAATTTC [CACACA_site6884] , give the reported gcPBM binding intensity (ln).
Out: 8.3

In: For the sequence shown here, ATATACATATATATATGTACTTATTTATTTATTTAT [XGTACX_site2532] , give the reported gcPBM binding intensity (ln).
Out: 8.56

In: For the sequence shown here, `TATATATATATATAAGTGCATATAAAAATCGTTCGT` , give the reported gcPBM binding intensity (ln).
Out: 10.3

In: For the sequence shown here, CCCGTAAATTATGAGTGTACGTTATTTTTTAAAATG [XGTACX_site3946] , give the reported gcPBM binding intensity (ln).
Out: 8.81

In: For the sequence shown here, TTAATAAACCTTAGATGTACAGTTATATATAAAATA [XGTACX_site6681] , give the reported gcPBM binding intensity (ln).
Out: 8.54

In: For the sequence shown here, GTTAGCTCGTTCGGAGCACACACATATATATATATA [CACACA_site8595] , give the reported gcPBM binding intensity (ln).
Out: 10.1

In: For the sequence shown here, `AATAAAAATAATATAGTGCATAATATAAGGAAAAAA` , give the reported gcPBM binding intensity (ln).
Out: 9.07

In: For the sequence shown here, ATGCTCAGGAAAACATGTACAAAATTATTTGTTATA [XGTACX_site4306] , give the reported gcPBM binding intensity (ln).
Out: 8.31

In: For the sequence shown here, AAAAAAAATATACATACATGCATACATAAGTTTCTA [TGCATGCA_site998] , give the reported gcPBM binding intensity (ln).
Out: 8.49

In: For the sequence shown here, CATTCTACAATAAAAAGTACATATATATATTATATA [XGTACX_site921] , give the reported gcPBM binding intensity (ln).
Out: 8.43
